# assay: in vitro
# conditions: human, hela cells, % viability
readout.name: viability at 28.5 h, 10 µM (%)
One number for each entry, in %.

Use the examples below as a reference point.
O=[N+]([O-])c1ccc(N2CCCCC2)s1 104
CN1CCN(Cc2c(C3CCCC3)[nH]c3ncccc23)CC1 88.6
O=S(=O)(Nc1ccc2[nH]ncc2c1)c1ccc(Br)cc1C(F)(F)F 100
O=S(=O)(Nc1nnn[nH]1)c1ccc(-c2cc(C(F)(F)F)on2)s1 96.9

Now examine the next entry.
So for `CN(Cc1ccc(-c2ccc(S(C)(=O)=O)cc2)nc1)C1CCNCC1` , the logged viability at 28.5 h, 10 µM turned out to be 99.1

====

I'd be grateful if you could share measured viability at 28.5 h, 10 µM for these entries.
# assay: in vitro
# conditions: human, hela cells, % viability
One number for each entry, in %.

compound	viability at 28.5 h, 10 µM / %
Cn1nnnc1SCCNC(=O)Nc1ccc(CN2CCOCC2)cc1 [CBK307084]	97.4
O=c1[nH]c(=O)c2cc(S(=O)(=O)Nc3ccc(N4CCCCCC4)cc3)ccc2[nH]1 [CBK286361]	81.4
O=C(O)C1CC1C(=O)N1CC2(CCCC2)c2c(F)cccc21 (centres unmarked) [CBK306360]	112
CCc1nc2ccc(C(=O)Nc3ccc(OC)c(OC)c3)cn2c1N(C)C(=O)Nc1ccccc1OC [CBK145875]	117

List reported viability at 28.5 h, 10 µM for each of these compounds:
1. CN(C)S(=O)(=O)N1CCN(C(=O)N(c2ccccc2)c2ccccc2)CC1 [CBK267466]
2. CC(C)(C)c1cn(C[C@H]2CC3CCN2C[C@@H]3C(=O)Nc2nccs2)nn1 (some centres unmarked) [CBK288737]
3. COc1ccc([C@@]23CC[C@@H](NC(=O)c4ccc(-c5csnn5)cc4)C[C@@H]2N(C)CC3)cc1OC [CBK074256T]
4. C[C@@H]1C[C@H](Nc2ccccc2)c2ccccc2N1C(=O)CCC(=O)O [CBK286820]
5. O=C(O)c1cc(NC(=O)c2ccccc2[N+](=O)[O-])cc(C(=O)O)c1 [CBK262135]

1: 96.7; 2: 87; 3: 100; 4: 95.8; 5: 81.1

====

Please provide measured viability at 28.5 h, 10 µM for the entries that follow.
# assay: in vitro
# conditions: human, hela cells, % viability
Answers are plain numbers, in %.

List viability at 28.5 h, 10 µM for every entry below, keeping the order given.
1. O=C(O)CSc1nc2ccccc2n1Cc1ccccc1
2. CC(C)c1ccc(S(=O)(=O)Nc2ccc(OC(F)F)cc2)cc1

94.2
87.8

Go through the list and state viability at 28.5 h, 10 µM for each entry.
1. COc1ccccc1NC(=O)CSCc1nc2ccccc2[nH]1
2. NC(=O)COc1ccc(CNC(=O)CN2CCc3ccccc32)cc1
3. CCCCOc1ccc(-c2ccc(C#N)cc2)cc1
4. COc1nccnc1N1CCN(Cc2cccnc2)CC1
5. N#CCC(=O)Nc1ccc(F)c(Cl)c1
6. Cc1cc2c(N3CCN(Cc4nc5ccccc5[nH]4)CC3)ncnc2s1 [CBK268213C]
7. O=C(C1CCN(S(=O)(=O)c2ccc(F)cc2)C1)N1CCN(C2CCCC2)CC1 (stereo not drawn)

105
96.1
93
91.2
95.4
101
96.6

For each listed entry, give its viability at 28.5 h, 10 µM.
1. CCOC(=O)N1CCC(NCC(C)(C)CN(C)C)CC1
2. CN(C)C(=O)C1(c2ccccc2)CCNC1 (stereo not drawn) [CBK023394C]
3. C[N+](C)(C)C1=C([O-])c2ccccc2C1=O
4. Cc1ccc(-n2c(O)nnc2-c2ccc(Cl)c(Cl)c2)cc1
5. CC(N)(Cc1ccc(Oc2ncc(C(F)(F)F)cc2Cl)cc1)C(=O)O (stereo not drawn)
6. O=C(Cn1c(-c2cncs2)nc2ccccc21)NCc1ccc2c(c1)OCO2

1: 96.2; 2: 114; 3: 92.7; 4: 94.5; 5: 91.9; 6: 95.5

====

# assay: in vitro
# conditions: human, hela cells, % viability
I'd appreciate it if you marked entries TRUE when viability at 28.5 h, 10 µM is lower than 90% and FALSE when it is not.

Some solved entries appear below for comparison.
compound	label
CC1=C[C@@H](CO)[C@H](C(C)C)C[C@H]1Cc1nnc(-c2ccncc2)o1	FALSE
CC(=O)Nc1ccc(CNC(=O)CN(C)Cc2nc(C3CC3)no2)cc1	FALSE
Cc1nonc1NC(=O)CSc1nc2cc(Cl)ccc2[nH]1	TRUE
O=C(CSc1nnc(-c2ccccc2)n1C1CCCCC1)Nc1ccc(Cl)cc1Cl	FALSE
CC(C)CNc1n[nH]c(=S)s1	FALSE

For `CN(Cc1ccccc1)C(=O)[C@@H]1Cc2[nH]cnc2CN1Cc1cc2ccccc2o1` , is the recorded viability at 28.5 h, 10 µM below the cut-off of 90%? FALSE

State whether 90% exceeds viability at 28.5 h, 10 µM recorded for `O=C(NNC(=O)c1cc2ccccc2cc1O)Nc1cccc([N+](=O)[O-])c1` . FALSE

# check: viability at 28.5 h, 10 µM < 90% for CCN(Cc1ccccc1)C1CCN(Cc2cccc(OC)c2)CC1 [CBK264654G] FALSE

Field: below-cutoff. Rule: recorded viability at 28.5 h, 10 µM strictly less than 90%. Subject: `O[C@@H]1C[C@@H](c2nc(-c3ccccn3)no2)N(Cc2ccccc2)C1` TRUE

Lab note: confirm whether the reported viability at 28.5 h, 10 µM for this compound is below 90%, equality not counting. compound: `CC(=O)Nc1nc(OCCN2CCCC2=O)cnc1/C=C\c1ccccc1` TRUE

====

# assay: in vitro
# conditions: human, hela cells, % viability
readout.name: viability at 28.5 h, 10 µM (%)
Numbers only, in %.

compound	units.of.measure	viability at 28.5 h, 10 µM
c1csc(C2CN(c3nccn4cnnc34)CCO2)c1 (centres unmarked)	%	85
CCN(CC)CCNC(=O)N1CCN(c2ccccc2)CC1	%	116
O=C(Cc1cc(Cl)ccc1C(F)(F)F)NCCc1c[nH]c2ccc(Cl)cc12	%	80.2
O=C(CSc1ccc2nnc(-c3cccnc3)n2n1)c1ccccc1	%	100
CCC(=O)Oc1ccc(C(=O)N2CCN(c3ccccc3F)CC2)cc1	%	103

Give measured viability at 28.5 h, 10 µM for every item shown.
1. CCNC(=O)N1C(CC(=O)OCC)C(=O)NC2CCCCC21 (centres unmarked)
2. COc1cc(CNC23CC4CC(CC(C4)C2)C3)c(Cl)cc1OCC(=O)O
3. Clc1ccc(-c2nccnc2OCc2ccccn2)cc1Cl
4. COCCc1noc(CC2CCN(c3ncncc3C#N)CC2)n1
5. CN(CC(=O)C(C#N)c1ccccc1)Cc1ccccc1 (centres unmarked)

116
87.6
94.7
90.5
96.8

Each compound below has a reported value. Please supply its viability at 28.5 h, 10 µM.
1. N#C/C(=C/c1c[nH]c2ccccc12)c1n[nH]c(N)c1C#N
2. COc1cccc(C2C=C(c3cccnc3)Nc3ncnn32)c1OC (centres unmarked)
3. CCCCn1nc(Cn2cncn2)nc1CC1NC(=O)c2ccccc21 (centres unmarked)
4. Cc1ccc(NC(=O)NC(=O)C2CCN(CCc3ccc(F)cc3)CC2)cc1Cl

1. 70.4
2. 95.1
3. 108
4. 89.5

====

What viability at 28.5 h, 10 µM was measured for each of the following?
# assay: in vitro
# conditions: human, hela cells, % viability
One number for each entry, in %.

Hi team, please reply with viability at 28.5 h, 10 µM for each item in this list.
1. CCN(CC)CCNC(=O)/C(=N\O)c1ccccc1
2. Cc1ccc(C2=NN(c3ccccc3)C(c3cn(CCC(=O)O)nc3-c3ccccc3)C2)cc1 (stereo not drawn)
3. O=C(Oc1ccc2c(c1)OCO2)c1cc(S(=O)(=O)N2CCOCC2)c(Cl)cc1Cl
4. O=C(Cc1cccc(F)c1)N1CCC(O)(c2cccnc2F)CC1

1: 106; 2: 107; 3: 101; 4: 90.5

For each entry beneath this line, provide reported viability at 28.5 h, 10 µM.
1. CS(=O)(=O)Nc1ccc(-c2ccsc2)c2ccccc12
2. c1cncc(Nc2cccc(-c3cnc4ccccc4c3)n2)c1

[98.7, 98.8]

====

# assay: in vitro
# conditions: human, hela cells, % viability
Criterion: viability at 28.5 h, 10 µM strictly less than 90%. Met: 1. Not met: -1.

Below, 6 compounds whose answers are already recorded.
compound	label
CO[C@]1(c2cccc(C)c2)CC[C@@H](N2CCCCC2)CC1 [CBK015909G]	1
O=C(O)c1cccc(NCN2C(=O)c3ccc([N+](=O)[O-])cc3C2=O)c1 [CBK261100]	-1
COc1ccccc1NCC(=O)n1nc(C)cc1C [CBK263879]	-1
CCCn1ncc(C(=O)NC(C)c2c(C)nn(CC)c2C)c1C (stereo not drawn) [CBK281532]	1
O=C(Nc1ccccc1C(=O)N1CCOCC1)C1CCN(C(=O)c2ccco2)CC1 [CBK270272]	-1
O=c1c2c(nc(SCCc3ccccc3)n1CCc1ccccc1)-c1ccccc1CC21CCCCC1 [CBK262661]	1

Please find the next compound below.
Lab note: viability at 28.5 h, 10 µM threshold 90%. Does this compound come in strictly under it? O=C(NC(=O)N1CCSC1)c1c(Cl)cccc1Cl [CBK028794] 1

Data origin, for the record: paper PMC12040169
